Tested on: PC-3 prostate
Test Details: NCI-60 one-dose screen, 48 h
Measurement Conditions: 10 µM unless noted
The panel holds about 83,000 compounds, 20% with a hit somewhere; the sample as a whole holds those more often. Active and inactive are the calls of the source. The calls were made as follows: active = growth percent below 10; inactive = the rest.
Possible outcomes: active, inactive

[[record]]
compound = "C=C(C[n+]1ccccc1)[C@@H]1CC[C@]2(C(=O)OC)CC[C@]3(C)[C@H](CC[C@@H]4[C@@]5(C)CCC(=O)C(C)(C)[C@@H]5CC[C@]43C)[C@@H]12"
experimental_target = "PC-3 prostate"
assigned_class = "inactive"

[[record]]
compound = "Cc1ccccc1NC(=O)Cn1cc(CN2CCN(c3ccnc4cc(Cl)ccc34)CC2)nn1"
experimental_target = "PC-3 prostate"
assigned_class = "inactive"

[[record]]
compound = "N#Cc1nn(-c2ccccn2)c(N)c1C#N"
experimental_target = "PC-3 prostate"
assigned_class = "inactive"

[[record]]
compound = "CCCC[N+]1(C)CCN=C1Cc1ccccc1 (configuration not stated)"
experimental_target = "PC-3 prostate"
assigned_class = "inactive"

[[record]]
compound = "O=C(Nc1ccccc1)Nc1ccccc1CNc1nc(Nc2ccc(OCCN3CCCC3)cc2)ncc1Cl"
experimental_target = "PC-3 prostate"
assigned_class = "inactive"

[[record]]
compound = "Cc1c(-c2cnc3ccc(Cl)cc3c2C(=O)O)nnn1-c1ccc(Cl)cc1"
experimental_target = "PC-3 prostate"
assigned_class = "inactive"

[[record]]
compound = "CCOC(=O)C#Cc1c(CC(=O)OCC)nnn1[C@H]1O[C@@H](CO)[C@@H]2OC(C)(C)O[C@@H]21"
experimental_target = "PC-3 prostate"
assigned_class = "inactive"

[[record]]
compound = "COc1cc2c(c(OC)c1OC)CCC(c1cccc(C(=O)Nc3ccccc3Br)c1)O2 (configuration not stated)"
experimental_target = "PC-3 prostate"
assigned_class = "inactive"

[[record]]
compound = "COc1cc(C(=O)/C=C/c2c(-c3cccs3)nc3sc(C)cn23)cc(OC)c1OC"
experimental_target = "PC-3 prostate"
assigned_class = "active"

[[record]]
compound = "CC1=C(C(=O)c2ccccc2)C(c2ccc3c(c2)OCO3)NC(=S)N1 (configuration not stated)"
experimental_target = "PC-3 prostate"
assigned_class = "inactive"

[[record]]
compound = "CNC(=O)c1cc(Oc2ccc3nc(NC(=O)c4cc(C(F)(F)F)cc(C(F)(F)F)c4)sc3c2)ccn1"
experimental_target = "PC-3 prostate"
assigned_class = "active"

[[record]]
compound = "C/C=C(/C)C(=O)O[C@@H]1CC(C)(C)CC2C34OC(=O)[C@@]21CC[C@@]3(C)[C@]1(C)CCC2C(C)(C)C(=O)CC[C@]2(C)C1C[C@@H]4O (some centres not stated)"
experimental_target = "PC-3 prostate"
assigned_class = "inactive"


* * *

System: CCRF-CEM leukemia
Test Details: NCI-60 one-dose screen, 48 h
Measurement Conditions: 10 µM unless noted
Compounds without any hit were thinned out: in the full panel of roughly 83,000, 20% have a hit. Active and inactive are the calls of the source. The calls were made as follows: active = growth percent below 10; inactive = the rest.
Possible outcomes: active, inactive

[[record]]
molecule = "CCCCN(CCC#N)C(N)=O"
experimental_target = "CCRF-CEM leukemia"
assigned_class = "inactive"

[[record]]
molecule = "Cn1nc(-c2ccc(Cl)cc2)nc2c(=O)n(C)c(=O)nc1-2"
experimental_target = "CCRF-CEM leukemia"
assigned_class = "active"

[[record]]
molecule = "COCCn1cc(-c2nc(-c3cc4cccnc4n3C)cs2)c2cc(OC)ccc21"
experimental_target = "CCRF-CEM leukemia"
assigned_class = "inactive"

[[record]]
molecule = "COc1ccc(-c2nc3cc(C(=O)NC4CCCCC4)ccc3n2C2CCCCC2)cc1"
experimental_target = "CCRF-CEM leukemia"
assigned_class = "inactive"

[[record]]
molecule = "O=C(/C=C/C12c3ccccc3C(c3ccccc31)C1C(=O)NC(=O)C12)c1cccs1 (centres undefined)"
experimental_target = "CCRF-CEM leukemia"
assigned_class = "active"

[[record]]
molecule = "Nc1nc(=O)n([C@H]2CC=C(CO)O2)cc1F"
experimental_target = "CCRF-CEM leukemia"
assigned_class = "inactive"

[[record]]
molecule = "COc1ccc(-c2ccc(-c3ccc(C(=N)N)o3)o2)cc1"
experimental_target = "CCRF-CEM leukemia"
assigned_class = "active"

[[record]]
molecule = "COc1cc(C(=O)n2nc(NCCCc3ccccc3)c3cc(N)ccc32)cc(OC)c1OC"
experimental_target = "CCRF-CEM leukemia"
assigned_class = "inactive"

[[record]]
molecule = "CCOC(=O)c1c(NC(=S)Nc2ccc([N+](=O)[O-])cc2)sc2c1CCCCC2"
experimental_target = "CCRF-CEM leukemia"
assigned_class = "inactive"

